Values compiled from PubChem BioAssay AID1159580.

We begin with a simple list: items and their reported normalized growth.
Experiment: chemical genetic growth profiling, strain panel (AID 1159580);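 note: tested at 20 µM; growth read once vehicle control cultures reached saturation at 30 °C; 1 = growth at the plate median or of vehicle wells; lower values mean less growth of the strain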
Conditions: S. cerevisiae deletion strains, growth OD, locus YOR270C, strain vph1, hits give low values
Out of some 5,500 compounds screened, about 2,000 (36%) were called active. Another 18% or so got no clear call; they are omitted. The list shows a part of the results.
Lab note: jot down the number only; don't add units.

The recorded normalized growth for Cc1ccc(C(=O)c2ccc(CC(=O)O)n2C)cc1 is 0.934

The recorded normalized growth for C=C[C@@]1(C)CC(=O)[C@@]2(O)[C@](C)(O1)[C@@H](OC(C)=O)[C@@H](O)C1C(C)(C)CC[C@H](O)[C@@]12C (some centres undefined) is 0.94

The recorded normalized growth for Cc1cc(CC(=O)O)n(C)c1C(=O)c1ccc(Cl)cc1 is 1.05

The recorded normalized growth for O=c1[nH]c(=O)n(C2C[C@H](O)[C@@H](CO)O2)cc1C(F)(F)F (some centres undefined) is 0.948
